TGT: T1, P2-AA-1HGe-T
T1 chain: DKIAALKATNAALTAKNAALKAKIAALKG
PROTOCOL: two-hybrid library CCmax;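 also: natural log of median RNA to DNA barcode read ratio; higher means stronger binding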
STUDY_CONDITIONS: mean of both orientations
Items are presented alongside their recorded interaction score.
No unit in the answer, only the number.

DEIAALEARNAALRAENAALEAEIAALEG [P1-AA-1HGe-R] | 2.2
DEIAALEAMNAALMAENAALEAEIAALEG [P1-AA-1HGe-M] | 1.98
DEIAALEAWNAALWAENAALEAEIAALEG [P1-AA-1HGe-W] | 2.15

Kindly consider the entry below.
Exercise: Return the recorded interaction score value; entry: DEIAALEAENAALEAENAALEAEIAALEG [P1-AA]
Key: 2.12

Where these numbers come from: paper PMC10397247
